RESULT TYPE: AC50

Req: So what AC50 did C=CCN1CCCC1CNC(=O)c1cc(S(N)(=O)=O)cc(OC)c1OC (stereo not given) [VERALIPRIDE] get with Histamine H1 receptor (Homo sapiens, UniProt P35367)?
Resp: > 30 µM

Req: Under Histamine H1 receptor (Homo sapiens, UniProt P35367): AC50 value of CC[C@H]1[C@@H](O)[C@@H]2[C@H](CC[C@]3(C)[C@@H]([C@H](C)CCC(=O)O)CC[C@@H]23)[C@@]2(C)CC[C@@H](O)C[C@@H]12 ?
Resp: > 30 µM

Req: Lab request: please report AC50 under test system Histamine H1 receptor (Homo sapiens, UniProt P35367) for COCCCN1CCC(NC(=O)c2cc(Cl)c(N)c3c2OCC3)CC1 [PRUCALOPRIDE]; note: assay procedure not described here
Resp: > 30 µM

Req: Form entry - test system: Histamine H1 receptor (Homo sapiens, UniProt P35367); read-out: AC50; molecule: CN1C(=O)C(O)N=C(c2ccccc2Cl)c2cc(Cl)ccc21 (stereo not given); note: assay procedure not described here
Sequence (P35367 whole entry): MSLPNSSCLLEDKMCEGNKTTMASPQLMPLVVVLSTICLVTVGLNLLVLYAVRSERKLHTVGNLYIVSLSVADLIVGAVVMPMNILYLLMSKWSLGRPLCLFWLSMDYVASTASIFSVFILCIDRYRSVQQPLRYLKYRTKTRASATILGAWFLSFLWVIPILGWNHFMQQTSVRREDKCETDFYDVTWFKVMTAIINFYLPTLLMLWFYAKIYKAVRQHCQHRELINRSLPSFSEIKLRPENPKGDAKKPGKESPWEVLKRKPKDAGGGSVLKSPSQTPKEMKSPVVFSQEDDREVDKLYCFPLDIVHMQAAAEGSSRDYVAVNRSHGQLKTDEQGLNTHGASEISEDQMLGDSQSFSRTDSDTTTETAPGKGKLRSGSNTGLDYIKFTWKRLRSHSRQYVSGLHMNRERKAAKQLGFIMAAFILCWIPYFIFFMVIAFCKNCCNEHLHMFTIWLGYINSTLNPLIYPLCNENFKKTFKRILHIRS
Resp: > 30 µM

Req: Lab request: please report AC50 under test system Histamine H1 receptor (Homo sapiens, UniProt P35367) for CN(C)CC/C=C1\c2ccccc2CSc2ccccc21 [DOTHIEPIN]; note: assay procedure not described here
Resp: 0.019 µM

Req: Record lookup: for Histamine H1 receptor (Homo sapiens, UniProt P35367), what AC50 belongs to CCC(C(=O)O)c1ccc(N2Cc3ccccc3C2=O)cc1 (stereo not given) ?
Resp: > 30 µM

Req: Tell me reported AC50 for C=CCc1ccccc1OCC(O)CNC(C)C (stereo not given) , tested with Histamine H1 receptor (Homo sapiens, UniProt P35367).
Resp: > 30 µM

Req: State its AC50 on Histamine H1 receptor (Homo sapiens, UniProt P35367): COc1cc2c(N)nc(N3CCN(C(=O)OCC(C)(C)O)CC3)nc2c(OC)c1OC
Resp: > 30 µM

Req: API: value(readout= AC50, system= Histamine H1 receptor (Homo sapiens, UniProt P35367), query= C[C@H](N)[C@H](O)c1cccc(O)c1 ); note: assay procedure not described here
Resp: > 10 µM

Req: What measured AC50 is associated with Cc1cc(O)c(C(=O)N[C@@H](C(=O)N[C@@H]2C(=O)N3C(C(=O)O)=C(CSc4nnnn4C)CS[C@H]23)c2ccc(O)cc2)cn1 [CEFPIRAMIDE] on Histamine H1 receptor (Homo sapiens, UniProt P35367)?
Resp: > 30 µM

Req: // fetch Histamine H1 receptor (Homo sapiens, UniProt P35367) AC50 for NC(=O)OCC(COC(N)=O)c1ccccc1 [FELBAMATE]
Resp: > 10 µM

Req: Request: AC50, test system Histamine H1 receptor (Homo sapiens, UniProt P35367), entry CC1(C)CCC(CN2CCN(c3ccc(C(=O)NS(=O)(=O)c4ccc(NCC5CCOCC5)c([N+](=O)[O-])c4)c(Oc4cnc5[nH]ccc5c4)c3)CC2)=C(c2ccc(Cl)cc2)C1; note: assay procedure not described here
Resp: > 30 µM

Req: I'm curious: which AC50 was measured for O=C(O)CCCCCCNC1c2ccccc2CCc2ccccc21 tested on Histamine H1 receptor (Homo sapiens, UniProt P35367)?; note: assay procedure not described here
Resp: > 30 µM

Req: Request body: readout AC50, system Histamine H1 receptor (Homo sapiens, UniProt P35367), query NCC(=O)CCC(=O)O . Return the value. Note: assay procedure not described here.
Resp: > 30 µM

Req: Query the reported AC50 for Histamine H1 receptor (Homo sapiens, UniProt P35367); item: CC[C@@H](C(N)=O)N1CCCC1=O
Resp: > 10 µM

Req: For the record N#Cc1ccc([C@H]2CCc3cncn32)c(F)c1 , what value of AC50 is listed for Histamine H1 receptor (Homo sapiens, UniProt P35367)?
Resp: 10 µM

Req: Item: NS(=O)(=O)Cc1noc2ccccc12 [ZONISAMIDE] Test system: Histamine H1 receptor (Homo sapiens, UniProt P35367) Read-out: AC50 Value: ?; note: assay procedure not described here
Resp: > 10 µM

Req: Tell me reported AC50 for O=C(O[C@H]1C[C@H]2CC[C@@H](C1)[N+]21CCCC1)C(O)(c1ccccc1)c1ccccc1 , tested with Histamine H1 receptor (Homo sapiens, UniProt P35367).
Resp: 11 µM

Req: Give AC50 (Histamine H1 receptor (Homo sapiens, UniProt P35367)) of the following molecule: CN1CCC(=C2c3ccccc3CCc3sccc32)CC1
Resp: 0.0047 µM

Req: Lookup: AC50 / Histamine H1 receptor (Homo sapiens, UniProt P35367) / O=C(NCCNCC(O)COc1ccc(O)cc1)N1CCOCC1 (stereo not given)
Resp: > 30 µM

Req: Lookup: AC50 / Histamine H1 receptor (Homo sapiens, UniProt P35367) / O=[N+]([O-])c1cn2c(n1)OC[C@@H](OCc1ccc(OC(F)(F)F)cc1)C2
Resp: > 10 µM

Req: Record lookup: for Histamine H1 receptor (Homo sapiens, UniProt P35367), what AC50 belongs to Nc1nc(/C(=C/CC(=O)O)C(=O)N[C@@H]2C(=O)N3C(C(=O)O)=CCS[C@H]23)cs1 ?
Resp: > 30 µM

Req: # get_value(readout= AC50, system= Histamine H1 receptor (Homo sapiens, UniProt P35367)) for CCCCN1C[C@H](O)[C@@H](O)[C@H](O)[C@H]1CO; note: assay procedure not described here
Resp: > 30 µM

Req: Find AC50 (Histamine H1 receptor (Homo sapiens, UniProt P35367)) for the entry CC(C)C(=O)c1c(C(C)C)nn2ccccc12
Resp: > 30 µM

Req: Entry CC(C[N+](C)(C)C)OC(N)=O (stereo not given) , system Histamine H1 receptor (Homo sapiens, UniProt P35367): what AC50 was measured?; note: assay procedure not described here
Resp: > 10 µM

Req: Give the reported AC50 for O=C(O)[C@H](CC(=O)N1C[C@H]2CCCC[C@H]2C1)Cc1ccccc1 [MITIGLINIDE] (system: Histamine H1 receptor (Homo sapiens, UniProt P35367)). Note: assay procedure not described here.
Resp: > 10 µM

Req: Lab note: need AC50 with Histamine H1 receptor (Homo sapiens, UniProt P35367) for entry Cc1ccc(-n2nccn2)c(C(=O)N2CCN(c3nc4cc(Cl)ccc4o3)CC[C@H]2C)c1 , please look it up.
Resp: > 30 µM

Req: Observed AC50 on Histamine H1 receptor (Homo sapiens, UniProt P35367) for COc1cc2nc(N(C)CCCNC(=O)C3CCCO3)nc(N)c2cc1OC (stereo not given) , please.
Resp: > 30 µM

Req: Quick check: AC50 on Histamine H1 receptor (Homo sapiens, UniProt P35367), item Nc1ccn([C@H]2CC[C@@H](CO)O2)c(=O)n1 ?
Resp: > 10 µM

Req: I'm curious: which AC50 was measured for CC(C(=O)O)c1ccc(N2Cc3ccccc3C2=O)cc1 (stereo not given) tested on Histamine H1 receptor (Homo sapiens, UniProt P35367)?; note: assay procedure not described here
Resp: > 30 µM

Req: Look up AC50 with Histamine H1 receptor (Homo sapiens, UniProt P35367) for this molecule: COC(=O)C1=C(C)NC(C)=C(C(=O)OC2CCCN(Cc3ccccc3)C2)C1c1cccc([N+](=O)[O-])c1 (stereo not given)
Resp: 27 µM

Req: Requested read-out AC50, target or system Histamine H1 receptor (Homo sapiens, UniProt P35367), entry Cn1nnc2c(C(N)=O)ncn2c1=O [TEMOZOLOMIDE]; note: assay procedure not described here
Resp: > 30 µM

Req: Fill in the recorded AC50 for this molecule, with Histamine H1 receptor (Homo sapiens, UniProt P35367) as test system: COc1ccccc1N1CCN(CC(O)COc2cccc3ccccc23)CC1 (stereo not given)
Resp: 0.75 µM

Req: For the record CC(=O)NCCCS(=O)(=O)O [ACAMPROSATE] , what value of AC50 is listed for Histamine H1 receptor (Homo sapiens, UniProt P35367)?
Resp: > 30 µM

Req: For Histamine H1 receptor (Homo sapiens, UniProt P35367), provide AC50 of CCc1c(Cl)c(O)c(Cl)c(O)c1C(=O)O[C@H]1[C@H](O)[C@H](OC)[C@H](OC/C2=C\C=C\C[C@H](O)/C(C)=C/[C@H](CC)[C@@H](O[C@@H]3OC(C)(C)[C@@H](OC(=O)C(C)C)[C@H](O)[C@@H]3O)/C(C)=C/C(C)=C/C[C@@H]([C@@H](C)O)OC2=O)O[C@@H]1C please.
Resp: > 30 µM

----------
# TGT: UniProt:Q9Y5N1
# Sequence (Q9Y5N1 whole entry): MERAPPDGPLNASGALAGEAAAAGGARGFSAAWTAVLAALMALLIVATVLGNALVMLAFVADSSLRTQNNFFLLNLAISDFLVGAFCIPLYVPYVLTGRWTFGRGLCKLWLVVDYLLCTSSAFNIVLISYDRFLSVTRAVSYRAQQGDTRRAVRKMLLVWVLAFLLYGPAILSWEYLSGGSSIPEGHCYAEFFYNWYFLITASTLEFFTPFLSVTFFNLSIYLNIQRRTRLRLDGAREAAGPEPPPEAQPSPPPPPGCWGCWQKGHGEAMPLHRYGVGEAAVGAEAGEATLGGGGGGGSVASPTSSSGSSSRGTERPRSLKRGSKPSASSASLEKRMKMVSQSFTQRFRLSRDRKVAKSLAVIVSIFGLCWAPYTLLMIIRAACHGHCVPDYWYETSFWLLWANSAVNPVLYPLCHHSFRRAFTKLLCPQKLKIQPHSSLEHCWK
RESULT TYPE: AC50

Req: Return reported AC50; argument: O=C1C(O)=C([C@H]2CC[C@H](c3ccc(Cl)cc3)CC2)C(=O)c2ccccc21
Resp: > 30 µM

Req: Sample COCCCN1CCC(NC(=O)c2cc(Cl)c(N)c3c2OCC3)CC1 [PRUCALOPRIDE] — what was its AC50?
Resp: > 30 µM

Req: Reported AC50, compound CN(C)CC/C=C1\c2ccccc2CSc2ccccc21 [DOTHIEPIN] : ____
Resp: 29 µM

Req: What value of AC50 has been reported for the following compound? O=C(OCC(O)CO)c1ccccc1Nc1ccnc2cc(Cl)ccc12 (configuration not stated)
Resp: > 30 µM

Req: Give the measured AC50 of CCOC(=O)[C@H](CCc1ccccc1)N[C@@H](C)C(=O)N1[C@H](C(=O)O)C[C@@H]2CCC[C@@H]21 .
Resp: > 10 µM

Req: Which value of AC50 has been reported for NC(=O)CN1CC(O)CC1=O (configuration not stated) in the records?
Resp: > 30 µM

Req: Which AC50 is reported for this compound? C[C@@H]1O[C@@H](O[C@@H]2C=C3CC[C@@H]4[C@H](CC[C@]5(C)[C@@H](c6ccc(=O)oc6)CC[C@]45O)[C@@]3(C)CC2)[C@H](O)[C@H](O)[C@H]1O
Resp: > 30 µM

Req: Looking for the measured AC50 of CC(C(=O)O)c1ccc(N2Cc3ccccc3C2=O)cc1 (configuration not stated) , can you help?
Resp: > 30 µM

Req: Would you mind telling me what AC50 value was observed for CC(C)(C)c1cc(C(C)(C)C)c(NC(=O)c2c[nH]c3ccccc3c2=O)cc1O ?
Resp: > 10 µM

Req: // query AC50 value for entry CCC1(CC)C(=O)NCC(C)C1=O (configuration not stated)
Resp: > 30 µM

Req: Recorded AC50 for O=C(O)/C=C/c1ccc(Cn2ccnc2)cc1 , please?
Resp: > 30 µM

Req: # get_value(readout='AC50', item= Cc1cccc(Nc2ccccc2C(=O)O)c1C )
Resp: > 10 µM

Req: Consider the compound CS(=O)(=O)c1ccc(C2=C(c3ccccc3)C(=O)OC2)cc1 and give its measured AC50.
Resp: > 10 µM

Req: Returns the measured AC50 for the input compound. Input: Cc1nnc2n1-c1ccc(Cl)cc1C(c1ccccc1Cl)=NC2
Resp: > 10 µM

Req: Recorded AC50 of CCOc1ccccc1OCC1CNCCO1 (configuration not stated) , please.
Resp: > 10 µM

Req: Given Cc1c(C(=O)NN2CCCCC2)nn(-c2ccc(Cl)cc2Cl)c1-c1ccc(Cl)cc1 , state its recorded AC50.
Resp: > 30 µM

Req: Which AC50 is reported for this compound? Cn1c(=O)c2c(ncn2CC2OCCO2)n(C)c1=O
Resp: > 30 µM

Req: Return reported AC50; argument: CC(C)=CCC/C(C)=C/C=C/C(C)=C/C=C/C(C)=C/C=C/C=C(C)/C=C/C=C(C)/C=C/C=C(\C)CCC=C(C)C
Resp: > 30 µM

Req: What value of AC50 has been recorded for this entry: C/C(O)=C(\C#N)C(=O)Nc1ccc(C(F)(F)F)cc1 [TERIFLUNOMIDE]
Resp: > 30 µM

Req: Consider the compound O=[N+]([O-])O[C@@H]1CO[C@H]2[C@@H]1OC[C@@H]2O [ISOSORBIDE MONONITRATE] and give its measured AC50.
Resp: > 10 µM

Req: Recorded AC50 of CCCC1O[C@@H]2C[C@H]3[C@@H]4CCC5=CC(=O)C=C[C@]5(C)[C@H]4[C@@H](O)C[C@]3(C)[C@]2(C(=O)CO)O1 (some centres not stated) [BUDESONIDE] , please.
Resp: > 10 µM

Req: What does the record list as AC50 for CC(C)Cn1cnc2c(N)nc3ccccc3c21 ?
Resp: > 10 µM

Req: Reported AC50, compound CC1=C(C(=O)O)N2C(=O)[C@@H](NC(=O)[C@H](N)c3ccccc3)[C@H]2SC1 [CEPHALEXIN ANHYDROUS] : ____
Resp: > 10 µM

Req: Quick one: AC50 of Cc1cn([C@H]2C[C@H](N=[N+]=[N-])[C@@H](CO)O2)c(=O)[nH]c1=O ?
Resp: > 10 µM

Req: Any idea what its AC50 is? The compound is CC=CC(=O)N(CC)c1ccccc1C
Resp: > 10 µM

Req: Recorded AC50 for COc1ccc2c3c1O[C@H]1[C@@H](O)C=C[C@H]4[C@@H](C2)N(C)CC[C@@]341 , please?
Resp: > 10 µM

Req: # lookup: AC50 of CCCCCCOc1ccccc1C(N)=O [EXALAMIDE]
Resp: > 30 µM

Req: Reported AC50 for C[C@H]1CNCCc2ccc(Cl)cc21 : what is it?
Resp: > 30 µM

Req: AC50 for Nc1nc(Cl)nc2c1ncn2[C@H]1C[C@H](O)[C@@H](CO)O1 ?
Resp: > 30 µM

Req: Tell me the measured AC50 of CNC(=O)c1ccccc1Sc1ccc2c(/C=C/c3ccccn3)n[nH]c2c1 , please.
Resp: > 30 µM

Req: Please look up its AC50: CCOc1ccc(Cc2cc([C@@H]3O[C@H](CO)[C@@H](O)[C@H](O)[C@H]3O)ccc2Cl)cc1
Resp: > 10 µM

Req: Could you share which AC50 value was measured for Cc1nc([N+](=O)[O-])cn1-c1ccc([N+](=O)[O-])cc1 ?
Resp: > 30 µM

Req: Need AC50, item O=C(O)CCCCCCNC1c2ccccc2CCc2ccccc21
Resp: > 30 µM

Req: Can you look up the measured AC50 of O=C(O[C@H]1C[C@H]2CC[C@@H](C1)[N+]21CCCC1)C(O)(c1ccccc1)c1ccccc1 for me?
Resp: > 30 µM

Req: # query: AC50 of entry C#C[C@]1(O)CC[C@H]2[C@@H]3[C@H](C)CC4=C(CCC(=O)C4)[C@H]3CC[C@@]21C
Resp: > 30 µM

Req: I have this compound here, COc1ccc(C(=O)Nc2ccccc2CCC2CCCCN2C)cc1 (configuration not stated) [ENCAINIDE] , and I need its recorded AC50.
Resp: > 10 µM

Req: So what's the measured AC50 for this one? CC(=O)NCCCS(=O)(=O)O [ACAMPROSATE]
Resp: > 30 µM
